From: PubChem BioAssay (NCI)

Assay: NCI Yeast Anticancer Drug Screen. Data for the cln2 rad14 strain (AID 165);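 note: 0% = growth equal to vehicle treated cultures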
Conditions: S. cerevisiae cln2 rad14 strain, at 5.0 µM (retest, dose inferred, filed as 0.5)
Experimental: Growth inhibition of yeast strains with defined genetic alterations is measured as a screen for potential anti-cancer activity. Selected strains with alterations in DNA damage repair or cell cycle control were exposed to compounds and growth inhibition was measured relative to vehicle treated controls. The strain used in this assay is cln2 rad14
About 79,000 compounds went through this panel and 15% of them were active in at least one assay; those are over-represented in the sample as a whole. Active and inactive are the calls of the source. Cut-off read from the data, not from the text of the source: active = growth inhibition above about 70%; inactive = the rest.
Please answer using one outcome listed in yes (1) = active, no (0) = inactive

As a guide, the following entries are already answered.
| COMPOUND | CAT |
| --- | --- |
| CCCC(CC)c1cc(O)c(O)cc1C(CC)CCC (configuration not stated) | no (0) |
| CC1CCC(NCCOC(=O)c2ccc([N+](=O)[O-])cc2)CC1 (configuration not stated) | no (0) |
| CC1=CC(=O)C=C(Br)C1=O | no (0) |
| CN(C)CCC(=O)c1ccc2c(ccc3ccccc32)c1 | no (0) |
| CCCCCCCCCCCCCCCCN[Si](NCCCCCCCCCCCCCCCC)(NCCCCCCCCCCCCCCCC)NCCCCCCCCCCCCCCCC | yes (1) |

Data request: What was the test verdict on O=C1C=CC(=O)N1c1ccc(-c2nc3ccccc3o2)cc1 ?
Data returned: yes (1)

Data request: Query: recorded result category for CCNC(=S)N/N=C(/C)c1cccc(/C(C)=N\NC(=S)NCC)n1 in this test
Data returned: no (0)

Data request: Lab log entry: CC(NNC(=S)N1CCCCCC1)c1cc2ccccc2cn1 (configuration not stated) — outcome as called in the assay?
Data returned: yes (1)

Data request: What classification did CCOC(=O)CC1C(=O)N(c2nc(-c3ccc(Br)cc3)cs2)N=C1C (configuration not stated) end up with in this test?
Data returned: no (0)

Data request: Tell me the assay call for CC(C(=O)NN)C(O)C(C)(C)O (configuration not stated) please.
Data returned: no (0)

Data request: Hello, I am checking results. What call was entered for O=C1NC(=S)S/C1=C\c1ccc(F)cc1 ?
Data returned: no (0)

Data request: How was C#CC(O)c1ccc(Cl)cc1Cl (configuration not stated) classified in this test?
Data returned: no (0)

Data request: Outcome? CCOC(=O)c1cc(Cc2ccccc2)c(=O)n(C)c1-c1ccccc1
Data returned: no (0)

Data request: Which result was noted for this compound in the test: S=c1[nH]c2c(-c3ccccc3)cccc2s1
Data returned: no (0)

Data request: Record request — test call for COc1cccc(N2CCN(CC(O)COc3cc4c(c5c3CCCC5)CCCC4)CC2)c1 (configuration not stated)
Data returned: no (0)

Data request: Could you please tell me the result logged for NC(N)=Nc1ccc(C(=O)Oc2c(Cl)cc([N+](=O)[O-])cc2Cl)cc1 in this assay?
Data returned: no (0)

Data request: # lookup: test call for BrC(Br)([P+](c1ccccc1)(c1ccccc1)c1ccccc1)[P+](c1ccccc1)(c1ccccc1)c1ccccc1
Data returned: no (0)

Data request: Kindly provide the recorded test outcome for the following compound: CC(=O)Nc1ccc(C#N)c2ccccc12
Data returned: no (0)

Data request: Look up the recorded call for CC[O-].CC[O-].[O-]c1ccccc1C=Nc1ccccc1.[O-]c1ccccc1C=Nc1ccccc1.[Ti+4] in this test.
Data returned: no (0)

Data request: Which outcome was assigned to c1ccc(N=Nc2n[nH]c3ccccc23)cc1 in this test?
Data returned: no (0)

Data request: Query: recorded result category for Cc1ccccc1C1c2c(C)cccc2C(=O)CC1CC(=O)O (configuration not stated) in this test
Data returned: no (0)

Data request: Which outcome was assigned to CSc1nc(=Nc2ccccc2)sn1-c1ccccc1 in this test?
Data returned: no (0)

Data request: Give the logged outcome of this assay for the following compound: O=C1OCC/C1=C1/CCOC1
Data returned: no (0)

Data request: Record request — test call for COc1ccc(-c2cc3ccccc3c(=O)n2Cc2ccccc2)cc1
Data returned: no (0)

Data request: Please indicate how the test categorized N#CC(CC(Br)CBr)(c1ccccc1)c1ccccc1 (configuration not stated) .
Data returned: no (0)
